# Target System: T1, human MUC16 (mucin 16) (human)
# T1 construct: Endogenously expressed on human tumour cell lines; also called hMUC16
# Assay Remarks: MSD ECL cell binding, RLU ratio OVCAR-3 vs SK-OV-3, 1.9 nM Ab
Measured Parameter: Ratio anti-MUC16 Binding OVCAR-3/SK-OV-3 (ratio)
Numeric only. Scale: ratio

Binder | Quantity Unit | Ratio anti-MUC16 Binding OVCAR-3/SK-OV-3
H1M9528N (antibody, mouse IgG1, V domains shown, Human variable regions, mouse IgG1 constant region) VH: QMQLQESGPGLVKPSETLSLTCTVSGGSISSYYWNWIRQPPGKGLEWIGYIYYSGNNFNPSLKSRVTISVDTSKNQFSLKLSSVTAADTAVYYCARAFHWNYEFDYWGQGTLVTVSS VL: EIVLTQSPGTLSLSPGERATLSCRASQSVSNNYLAWYQQKPGQAPRLLLYGASSRTTDIPDRFSGSGSGTDFTLTISRLEPEDFAVYYCQQYDNSPLTFGGGTKVEIR | ratio | 153

Given H1H8794P (antibody, V domains shown, Human IgG1) VH: QVQLVESGGGLVKPGGSLRLSCAASGFTFRDYSMSWIRQAPGKGLEWVSYVTFFNSAIYYADSVKGRFTISRDNAKNSLYLQMNSLRAEDTAVYYCAREREPIVGGFDYWGQGTLVTVSS VL: DIQMTQSPSSLSASVGDRVTITCRASQSINSYLNWYQQKPGKAPKLLIYAASSLQGGVPSRFSGGGSGTDFTLTITSLQPEDFATFYCQQSYSSPPITFGQGTRLEIK , state its recorded Ratio anti-MUC16 Binding OVCAR-3/SK-OV-3.
8
